biological target: human liver CES1 (Homo sapiens, UniProt P23141); construct: purchased Sigma Aldrich E0162; assay: CES1 enzyme assay (4-nitrophenyl acetate hydrolysis); type: biochemical; settings: 4 NPA substrate, 15 min at 25° C., pH 7.4; read-out: IC50 CES1 Assay
Sequence (P23141 18-567): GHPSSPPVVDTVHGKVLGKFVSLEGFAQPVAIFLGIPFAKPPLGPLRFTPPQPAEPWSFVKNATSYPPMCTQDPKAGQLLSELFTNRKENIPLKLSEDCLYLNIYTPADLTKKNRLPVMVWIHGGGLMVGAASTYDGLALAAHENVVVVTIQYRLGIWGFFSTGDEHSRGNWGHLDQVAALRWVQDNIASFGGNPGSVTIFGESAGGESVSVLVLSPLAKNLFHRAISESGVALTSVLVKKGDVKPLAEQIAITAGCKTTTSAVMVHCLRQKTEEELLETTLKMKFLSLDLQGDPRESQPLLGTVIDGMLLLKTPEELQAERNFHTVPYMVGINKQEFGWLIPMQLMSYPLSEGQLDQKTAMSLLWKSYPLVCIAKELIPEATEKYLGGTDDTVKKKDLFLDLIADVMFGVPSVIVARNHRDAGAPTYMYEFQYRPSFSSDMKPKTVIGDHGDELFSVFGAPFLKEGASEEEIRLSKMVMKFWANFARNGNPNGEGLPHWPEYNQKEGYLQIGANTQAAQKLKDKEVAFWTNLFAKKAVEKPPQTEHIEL
measured_metric: IC50 (µM)
State the answer as a number, implicitly in µM.

Prompt line: Requested read-out IC50, target or system human liver CES1 (Homo sapiens, UniProt P23141), entry `O=C1C[C@@H](c2ccc(O)cc2)Oc2cc(O)cc(O)c21`
Response line: 159
